Molecular target: DNA-PK phosphorylation at Serine 2056 (Homo sapiens, UniProt P78527)
Construct: host or cells: FaDu
Assay: Cellular Assay for Inhibition of DNA-PK Phosphorylation at Serine 2056 (FaDu cells, neocarzinostatin, sandwich ELISA)
Assay type: cell-based
Conditions: Table 1
So I've got a bunch of compounds here, and I need their IC50 values.

Reference set (4 entries):
1) Cn1cnc2cnc(N[C@H]3CC[C@@H](Oc4nc(N5CCOCC5)cc5ncccc45)CC3)nc21 ... 100 to 1000 nM
2) CCCC(=O)N[C@H]1CC[C@@H](Oc2nc(N3CCOCC3)cc3ncccc23)CC1 ... 100 to 1000 nM
3) Cc1cnc(N[C@H]2CC[C@@H](Oc3nc(N4CCOCC4)cc4ncccc34)CC2)nc1 ... 100 to 1000 nM
4) Nc1cnc(N[C@H]2CC[C@@H](Oc3nc(N4CCOCC4)cc4ncccc34)CC2)nc1 ... < 100 nM

Dear colleague, could you please provide IC50 for the compounds listed below?
1. c1cnc2cc(N3CCOCC3)nc(O[C@H]3CC[C@@H](Nc4ncnc5occc45)CC3)c2c1
2. c1cnnc(N[C@H]2CC[C@@H](Oc3nc(N4CCOCC4)cc4ncccc34)CC2)c1
3. FC(F)Oc1cnc(N[C@H]2CC[C@@H](Oc3nc(N4CCOCC4)cc4ncccc34)CC2)nc1
4. O=C(N[C@H]1CC[C@@H](Oc2nc(N3CCOCC3)cc3ncccc23)CC1)c1ncco1

1. < 100 nM
2. < 100 nM
3. < 100 nM
4. < 100 nM

---

Give IC50 for every item shown.
Target: DNA-PK phosphorylation at Serine 2056 (Homo sapiens, UniProt P78527)
Construct: host or cells: FaDu
Test: Cellular Assay for Inhibition of DNA-PK Phosphorylation at Serine 2056 (FaDu cells, neocarzinostatin, sandwich ELISA)
Assay type: cell-based
Conditions: Table 3

Solved entries (count: 4):
1. CS(=O)(=O)Nc1cnc2cc(N3CCOCC3)nc(O[C@H]3CC[C@@H](Nc4cccnn4)CC3)c2c1 ... < 100 nM
2. CS(=O)(=O)Nc1cnc2cc(N3CCOCC3)nc(O[C@H]3CC[C@@H](Nc4cncc(C#N)n4)CC3)c2c1 ... < 100 nM
3. Cc1ccc(N[C@H]2CC[C@@H](Oc3nc(N4CCOCC4)cc4ncc(NS(C)(=O)=O)cc34)CC2)nc1 ... < 100 nM
4. COc1ccncc1N[C@H]1CC[C@@H](Oc2nc(N3CCOCC3)cc3ncc(NS(C)(=O)=O)cc23)CC1 ... < 100 nM

Please look at the items below and tell me IC50 for each one, in order.
1. CS(=O)(=O)Nc1cnc2cc(N3CCOCC3)nc(O[C@H]3CC[C@@H](Nc4ncccc4C#N)CC3)c2c1
2. Cc1cc(C#N)nc(N[C@H]2CC[C@@H](Oc3nc(N4CCOCC4)cc4ncc(NS(C)(=O)=O)cc34)CC2)n1

1: < 100 nM; 2: < 100 nM

Report IC50 for every entry below.
1. CS(=O)(=O)Nc1cnc2cc(N3CCOCC3)nc(O[C@H]3CC[C@@H](Nc4ccnc(C#N)n4)CC3)c2c1
2. COc1cc(C#N)cnc1N[C@H]1CC[C@@H](Oc2nc(N3CCOCC3)cc3ncc(NS(C)(=O)=O)cc23)CC1
3. Cc1nc(N[C@H]2CC[C@@H](Oc3nc(N4CCOCC4)cc4ncc(NS(C)(=O)=O)cc34)CC2)ncc1F

1. 100 to 1000 nM
2. < 100 nM
3. < 100 nM

For the 6 molecules below, give their IC50 values.
1. CS(=O)(=O)Nc1cnc2cc(N3CCOCC3)nc(O[C@H]3CC[C@@H](Nc4ccc(C#N)cn4)CC3)c2c1
2. Cc1ccc(N[C@H]2CC[C@@H](Oc3nc(N4CCOCC4)cc4ncc(NS(C)(=O)=O)cc34)CC2)cn1
3. Cc1ccnc(N[C@H]2CC[C@@H](Oc3nc(N4CCOCC4)cc4ncc(NS(C)(=O)=O)cc34)CC2)n1
4. Cc1cccc(N[C@H]2CC[C@@H](Oc3nc(N4CCOCC4)cc4ncc(NS(C)(=O)=O)cc34)CC2)n1
5. Cc1ccc(N[C@H]2CC[C@@H](Oc3nc(N4CCOCC4)cc4ncc(O)cc34)CC2)cn1
6. CS(=O)(=O)Nc1cnc2cc(N3CCOCC3)nc(O[C@H]3CC[C@@H](Nc4ccc(F)cn4)CC3)c2c1

["< 100 nM", "100 to 1000 nM", "< 100 nM", "< 100 nM", "100 to 1000 nM", "< 100 nM"]

Give IC50 for each listed item.
1. Cc1cnc(N[C@H]2CC[C@@H](Oc3nc(N4CCOCC4)cc4ncc(O)cc34)CC2)c(C)c1
2. CNC(=O)c1ccnc(N[C@H]2CC[C@@H](Oc3nc(N4CCOCC4)cc4ncc(NS(C)(=O)=O)cc34)CC2)n1
3. Cc1ccncc1N[C@H]1CC[C@@H](Oc2nc(N3CCOCC3)cc3ncc(O)cc23)CC1
4. CN(c1ncccn1)[C@H]1CC[C@@H](Oc2nc(N3CCOCC3)cc3ncc(O)cc23)CC1

1000 to 10000 nM
< 100 nM
100 to 1000 nM
100 to 1000 nM

Would you be so kind as to report IC50 for each listed record?
1. Cc1cc(C#N)nc(N[C@H]2CC[C@@H](Oc3nc(N4CCOCC4)cc4ncc(O)cc34)CC2)n1
2. Cc1ccncc1N[C@H]1CC[C@@H](Oc2nc(N3CCOCC3)cc3ncc(NS(C)(=O)=O)cc23)CC1
3. CS(=O)(=O)Nc1cnc2cc(N3CCOCC3)nc(O[C@H]3CC[C@@H](Nc4ccnc(C(F)(F)F)n4)CC3)c2c1

1: 100 to 1000 nM; 2: < 100 nM; 3: 100 to 1000 nM

I'm hoping you can list IC50 for every molecule here, please.
1. Cc1ccc(F)c(N[C@H]2CC[C@@H](Oc3nc(N4CCOCC4)cc4ncc(NS(C)(=O)=O)cc34)CC2)n1
2. CN(C)Cc1cnc(N[C@H]2CC[C@@H](Oc3nc(N4CCOCC4)cc4ncc(O)cc34)CC2)nc1
3. CS(=O)(=O)Nc1cnc2cc(N3CCOCC3)nc(O[C@H]3CC[C@@H](Nc4cnc(C(F)(F)F)cn4)CC3)c2c1
4. Cc1ccc(N[C@H]2CC[C@@H](Oc3nc(N4CCOCC4)cc4ncc(O)cc34)CC2)nc1
5. Cc1cc(C)nc(N[C@H]2CC[C@@H](Oc3nc(N4CCOCC4)cc4ncc(O)cc34)CC2)n1

1. 100 to 1000 nM
2. < 100 nM
3. < 100 nM
4. 100 to 1000 nM
5. < 100 nM

Here are 3 molecules. What values of IC50 were reported for them?
1. Cc1nc(N[C@H]2CC[C@@H](Oc3nc(N4CCOCC4)cc4ncc(NS(C)(=O)=O)cc34)CC2)ccc1F
2. Cc1cnc(N[C@H]2CC[C@@H](Oc3nc(N4CCOCC4)cc4ncc(NS(C)(=O)=O)cc34)CC2)c(C)c1
3. CN(C)Cc1cnc(N[C@H]2CC[C@@H](Oc3nc(N4CCOCC4)cc4ncc(NS(C)(=O)=O)cc34)CC2)nc1

1. < 100 nM
2. < 100 nM
3. < 100 nM

---

Target: DNA-PK phosphorylation at Serine 2056 (Homo sapiens)
Construct: host or cells: FaDu
Assay: Cellular Assay for Inhibition of DNA-PK Phosphorylation at Serine 2056 (FaDu cells, neocarzinostatin, sandwich ELISA)
Type: cell-based
Settings: Table 1
Hi there, I'd appreciate the recorded IC50 for every entry that follows.

1) c1cnc2cc(N3CCOCC3)nc(O[C@H]3CC[C@@H](n4ncnn4)CC3)c2c1 [Compound 17m] ... 0.1 to 1 µM

Provide IC50 values for the following items, in order.
1. Cc1nc(N[C@H]2CC[C@@H](Oc3nc(N4CCOCC4)cc4ncccc34)CC2)c2occc2n1 [Compound 81]
2. Cc1ccnc(C(=O)N[C@H]2CC[C@@H](Oc3nc(N4CCOCC4)cc4ncccc34)CC2)n1 [Compound 127]
3. O=C(N[C@H]1CC[C@@H](Oc2nc(N3CCOCC3)cc3ncccc23)CC1)c1ncc[nH]1 [Compound 143]

["0.1 to 1 µM", "0.1 to 1 µM", "< 0.1 µM"]

---

Molecular target: pDNA-PK ser2056 induction in HCT116 spheroids (Homo sapiens)
Construct: endogenous in cells; host or cells: HCT116 multicellular tumour spheroids
Experiment: Multicellular tumour spheroid + radiation, pDNA-PK inhibition, HCT116
Type: cell-based
Conditions: Example 7; spheroid, cell line HCT115 [sic]; 20 Gy; 20% O2; read-out: EC50 (pDNA-PK inhibition, immunohistochemical endpoint)
pEC50: −log10 of the molar value.
Exercise: for every item that follows, state its recorded pEC50.

Go through the list and state pEC50 for each entry.
1. Brc1cnc2cc(N3CCOCC3)nc(O[C@H]3CC[C@@H](n4ccnc4)CC3)c2c1
2. O=C(N[C@H]1CC[C@@H](Oc2nc(N3CCOCC3)cc3ncccc23)CC1)c1ccc(Cl)nc1

["5.00 to 6.00", "5.00 to 6.00"]

Please supply pEC50 for each of the following items, keeping them in order.
1. O=C(N[C@H]1CC[C@@H](Oc2nc(N3CCOCC3)cc3ncccc23)CC1)c1c[nH]cn1
2. c1cnc2cc(N3CCOCC3)nc(O[C@H]3CC[C@@H](Nc4ncc5sccc5n4)CC3)c2c1
3. c1cnc2cc(N3CCOCC3)nc(O[C@H]3CC[C@@H](n4ncnn4)CC3)c2c1 [Compound 17m]
4. O=C(N[C@H]1CC[C@@H](Oc2nc(N3CCOCC3)cc3ncccc23)CC1)c1ncco1
5. c1cnc2cc(N3CCOCC3)nc(O[C@H]3CC[C@@H](Nc4ccncc4)CC3)c2c1
6. c1cnc2cc(N3CCOCC3)nc(O[C@H]3CC[C@@H](Nc4cnccn4)CC3)c2c1

1. 5.00 to 6.00
2. 6.00 to 6.30
3. 5.00 to 6.00
4. 5.00 to 6.00
5. 5.00 to 6.00
6. 6.30 to 8.00
